# procedure_text: Half life in dog at 10 mg/kg, iv
# Assay type: ADME, organism-based, Canis lupus familiaris
# conditions_used: in vivo

{"cpd_smiles": "C[C@@](C[C@H]1CN(c2ccc(C#CC3CC3)cc2)C(=O)O1)(C(=O)NO)S(C)(=O)=O", "half-life [min]": 42}

====

Entries and their fold change (FC)
# System: Klebsiella pneumoniae
# procedure_text: Inhibition of LpxC in Klebsiella pneumoniae ATCC 43816 assessed as potentiation factor by measuring ratio of MIC of compound alone to MIC of compound in presence of rifampicin after 20 hrs by CLSI protocol-based microdilution assay

{"cpd_smiles": "CCCc1ccc(N2C[C@H](C[C@](C)(C(=O)NO)S(C)(=O)=O)OC2=O)cc1", "fold change (FC)": 32}
{"cpd_smiles": "CC#Cc1ccc(N2C[C@H](C[C@](C)(C(=O)NO)S(C)(=O)=O)OC2=O)cc1", "fold change (FC)": 64}
{"cpd_smiles": "CC#Cc1ccc(C2=NO[C@@H](C[C@](C)(C(=O)NO)S(C)(=O)=O)C2)cc1", "fold change (FC)": 32}
{"cpd_smiles": "C[C@@](C[C@H]1CC(c2ccc(C#CC3CC3)cc2)=NO1)(C(=O)NO)S(C)(=O)=O", "fold change (FC)": 16}
{"cpd_smiles": "CC(C)(O)[C@H]1C[C@H](C#Cc2ccc(N3C[C@H](C[C@](C)(C(=O)NO)S(C)(=O)=O)OC3=O)cc2)C1", "fold change (FC)": 2}
